Attribute: AIRE transcriptional activation functional score
B1: library; numbered along this chain (parent)
chain: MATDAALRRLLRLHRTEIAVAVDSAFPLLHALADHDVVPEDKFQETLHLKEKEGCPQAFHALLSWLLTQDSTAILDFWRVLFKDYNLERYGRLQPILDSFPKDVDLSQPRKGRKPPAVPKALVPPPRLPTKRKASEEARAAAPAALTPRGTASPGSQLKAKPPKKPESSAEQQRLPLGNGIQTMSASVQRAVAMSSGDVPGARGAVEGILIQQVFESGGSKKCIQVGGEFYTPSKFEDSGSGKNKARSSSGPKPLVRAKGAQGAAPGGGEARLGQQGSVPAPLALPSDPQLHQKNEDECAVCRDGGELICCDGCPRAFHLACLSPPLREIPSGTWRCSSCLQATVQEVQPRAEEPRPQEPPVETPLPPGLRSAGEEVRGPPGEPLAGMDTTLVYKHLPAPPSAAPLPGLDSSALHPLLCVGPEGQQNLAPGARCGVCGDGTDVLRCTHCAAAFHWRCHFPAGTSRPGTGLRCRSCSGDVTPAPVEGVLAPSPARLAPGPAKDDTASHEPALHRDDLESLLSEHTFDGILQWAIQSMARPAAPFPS

Variants of: B1
Test: AIRE transcriptional activation functional score (insulin promoter-GFP; nonsense median 0, synonymous median 1) (normalised score); higher = higher AIRE activity (more reporter activation)
Conditions: with insulin promoter-GFP reporter in HEK293
Number only, no unit.

Below, 5 variants whose answers are already recorded.
Which AIRE transcriptional activation functional score is reported for this variant? `R351P`
1.02

Would you mind telling me what AIRE transcriptional activation functional score value was observed for `L529R` ?
0.121

Value lookup for AIRE transcriptional activation functional score; key = `R190W`
0.069

Tell me the measured AIRE transcriptional activation functional score of `A500H` , please.
1.22

Entry under review: `S518N` . Reported AIRE transcriptional activation functional score?
0.216

***
Entry `G269L` has what AIRE transcriptional activation functional score?
1.36

Entry `R132N` : reported AIRE transcriptional activation functional score = ?
-0.47
